System: MOLT-4 leukemia
ASSAY_TEXT: NCI tumour cell line growth inhibition, 48 h
OUTCOME_MEASURE: TGI

Task: Return value of TGI for input CCOC(=O)C12CC1(C(=O)OCC)C1CCC2C1 (stereo not given) , no commentary.
Result: > 100 µM

Further cases:
Task: Return value of TGI for input O=[N+]([O-])c1ccccc1C1N2CCCCC2[C@@H]2c3[nH]c4ccccc4c3CCN12 (stereo not given in full) , no commentary.
Result: 28.1 µM

Task: Return value of TGI for input COc1ccc2c(c1)CC[C@@H]1C2CC[C@]2(C)C(=O)NC(=O)CC12 (stereo not given in full) , no commentary.
Result: > 100 µM

Task: Return value of TGI for input C[N+]1(C)CN(c2ccccc2)C2(CCN(CCCC(=O)c3cccs3)CC2)C1=O , no commentary.
Result: > 100 µM
